I'd be grateful if you could share measured IC50 for these entries.
tested on: HEPG2; test: Cell proliferation assay: Acumen; type: cell-based; conditions: Homo sapiens, 168 h, 7 days, read-out: Abs IC50 growth inhibition
Value expressed in nM; do not type the unit.

Request: Which IC50 value is on record for CC(=O)CCC1C(=O)NC(C(C)C)C(=O)NC(Cc2cc(O)cc(F)c2)C(=O)N2CCCC(N2)C(=O)OC(C(C)=CC=CC(=O)OC(C)(C)C)CC=CC=CC(O)C(C)C1O (centres unmarked) ?
Result: 6.3

Request: Which IC50 value is on record for CNC(=O)c1cc(Oc2ccc(NC(=O)Nc3ccc(Cl)c(C(F)(F)F)c3)cc2)ccn1 [Sorafenib, reference compound] ?
Result: 2330

---

test system: Bone marrow progenitors; assay: Cytotoxicity, colony formation; assay type: cell-based, human; details: 14 days of treatment, colonies counted
assay metric: IC50 (µM)
Value expressed in µM; do not type the unit.

Request: Which IC50 value is on record for Cc1cn([C@H]2C[C@H](N=[N+]=[N-])[C@@H](CO)O2)c(=O)[nH]c1=O [AZT, reference compound] ?
Result: 0.89

---

assay: Pharmacokinetics single oral administration, blood and liver; type: in vivo; conditions: male, mouse, blood; CD1 mice; 10 mg/kg PO; read-out: Tmax in blood
assay metric: Tmax
Report the figure along with its unit, number first.

Request: Which Tmax value is on record for CC(=O)CCC1C(=O)NC(C(C)C)C(=O)NC(Cc2cc(O)cc(F)c2)C(=O)N2CCCC(N2)C(=O)OC(C(C)=CC=CC(=O)OC(C)(C)C)CC=CC=CC(O)C(C)C1O (stereo not shown) [NV651] ?
Result: 1 h

---

test system: Unstimulated PBMCs; experiment: Cytotoxicity, CellTiter Glo; assay type: cell-based; conditions: Homo sapiens, PBMC, 72 h, 3 days of treatment, read-out: IC50 (50% reduction in cell viability)
pIC50: −log10 of the molar value.
assay metric: pIC50

Request: // map CC(=O)CCC1C(=O)NC(C(C)C)C(=O)NC(Cc2cc(O)cc(F)c2)C(=O)N2CCCC(N2)C(=O)OC(C(C)=CC=CC(=O)OC(C)(C)C)CC=CC=CC(O)C(C)C1O (stereo not shown) to recorded pIC50 (system: Unstimulated PBMCs)
Result: < 4.52

---

assay: Pharmacokinetics IV and PO; format: in vivo; conditions: male, CD1, mouse, blood; mice; 5 mg/kg PO; read-out: time of peak concentration in blood (converted)
assay metric: Tmax

Request: Which Tmax value is on record for CC(=O)CCC1C(=O)NC(C(C)C)C(=O)NC(Cc2cc(O)cc(F)c2)C(=O)N2CCCC(N2)C(=O)OC(C(C)=CC=CC(=O)OC(C)(C)C)CC=CC=CC(O)C(C)C1O (stereo not shown) ?
Result: ~1 h

---

assay: Pharmacokinetics IV and PO; assay type: in vivo; details: male, CD1, mouse, blood; mice; 0.5 mg/kg IV vs 5 mg/kg PO
assay metric: bioavailability

Request: Which bioavailability value is on record for CC(=O)CCC1C(=O)NC(C(C)C)C(=O)NC(Cc2cc(O)cc(F)c2)C(=O)N2CCCC(N2)C(=O)OC(C(C)=CC=CC(=O)OC(C)(C)C)CC=CC=CC(O)C(C)C1O (stereo not shown) [NV651] ?
Result: 2%

---

test system: LIXC-006; test: Cell proliferation assay: Acumen; assay type: cell-based; conditions: Homo sapiens, 168 h, 7 days, read-out: Abs IC50 growth inhibition
I'd be grateful if you could share measured IC50 for these entries.
Value expressed in nM; do not type the unit.

Request: Which IC50 value is on record for CNC(=O)c1cc(Oc2ccc(NC(=O)Nc3ccc(Cl)c(C(F)(F)F)c3)cc2)ccn1 [Sorafenib, reference compound] ?
Result: 3350

Request: Which IC50 value is on record for CC(=O)CCC1C(=O)NC(C(C)C)C(=O)NC(Cc2cc(O)cc(F)c2)C(=O)N2CCCC(N2)C(=O)OC(C(C)=CC=CC(=O)OC(C)(C)C)CC=CC=CC(O)C(C)C1O (centres unmarked) [NV651] ?
Result: 8
